Measured values drawn from PubChem BioAssay (EPA / NIEHS) for this set.

Read-out: Bcl-2 (BID) gene, BID (gene 637)
test summary: LTEA_HepaRG_BID: Life Technologies and Expression Analysis (LTEA) Assay for Bcl-2 (BID) gene using HepaRG (AID 2283476)
conditions: mRNA level, 48 h; actives raise or lower the signal
Activity calls are given as the source filed them. The calls were made as follows: active = hit-call score of the fitted dose curve at least 0.9, where 1 is the maximum; inactive = score below 0.9.
Write down one outcome, taken from TRUE (active), FALSE (inactive)

// below: answered compounds
compound: CCOP(=S)(OCC)Oc1nc(Cl)n(C(C)C)n1
class: FALSE
//
compound: CC(C)NC(=O)N1CC(=O)N(c2cc(Cl)cc(Cl)c2)C1=O
class: FALSE
//
compound: CC(C)N1C(=O)c2ccccc2NS1(=O)=O
class: FALSE
//
compound: COP(=O)(OC)O/C(C)=C/C(=O)N(C)C
class: FALSE
//
compound: CC(C)N1C(=O)N(c2ccccc2)CSC1=NC(C)(C)C
class: FALSE

Dear all, I need the recorded test outcome for Cn1c(-c2ccccc2)cc(-c2ccccc2)[n+]1C , thank you.
TRUE

For this compound, state the assay outcome: COCC(C)N(C(=O)CCl)c1c(C)csc1C (stereo not given)
FALSE

====

Read-out: xenobiotic metabolism (CYP1A2), CYP1A2 (gene 1544)
test summary: CLD_CYP1A2_6hr: CellzDirect (CLD) Gene Expression Assay for xenobiotic metabolism (CYP1A2) at 6 hours (AID 2283663)
Inconclusive results are not listed. Calls of active or inactive are those of the source. Rule for the calls: active = hit-call score of the fitted dose curve at least 0.9, where 1 is the maximum; inconclusive = response in the unintended direction; inactive = score below 0.9.
Tick one outcome: 1 = active, 0 = inactive

Record excerpt, results attached:
compound: CC(C)(C)C(=O)C(Oc1ccc(Cl)cc1)n1cncn1 (configuration not stated)
class: 1
--
compound: CCOc1nc(F)cc2nc(S(=O)(=O)Nc3c(Cl)cccc3Cl)nn12
class: 0
--
compound: CCC(C)n1c(=O)[nH]c(C)c(Br)c1=O (configuration not stated)
class: 1

What outcome does the record of this test show for Clc1nc(Cl)nc(Nc2ccccc2Cl)n1 ?
0

====

target system: Retinoic acid receptor alpha (Homo sapiens)
test summary: ATG_RARa_TRANS: Attagene TRANS-FACTORIAL HepG2 Assay for human Retinoic Acid Receptor alpha (RARa) (AID 2283005);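 as to AC50: potency for increased reporter signal meaning RARa activation over DMSO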
Records with an inconclusive call do not appear. Activity calls are given as the source filed them. How the source made its calls: active means hit-call score of the fitted dose curve at least 0.9, where 1 is the maximum; inconclusive means response in the unintended direction; inactive means score below 0.9.
readout label: AC50

compound: C=C(C)CN(CC)c1c([N+](=O)[O-])cc(C(F)(F)F)cc1[N+](=O)[O-]
readout label: AC50
test value: 30.2 µM (active)

compound: CCN(CC)c1nc(C)cc(OP(=S)(OC)OC)n1
readout label: AC50
test value: inactive

compound: CS(=O)(=O)c1cc(C(F)(F)F)ccc1C(=O)c1cnoc1C1CC1
readout label: AC50
test value: inactive

compound: CC(C)Oc1cccc(NC(=O)c2ccccc2C(F)(F)F)c1
readout label: AC50
test value: inactive

compound: Cc1cnc(C2=NC(C)(C(C)C)C(=O)N2)c(C(=O)O)c1 (stereo unspecified)
readout label: AC50
test value: inactive

compound: COCC(=O)N(c1c(C)cccc1C)C(C)C(=O)OC (stereo unspecified)
readout label: AC50
test value: inactive

compound: Cc1c(COC(=O)[C@@H]2[C@H](/C=C(\Cl)C(F)(F)F)C2(C)C)cccc1-c1ccccc1
readout label: AC50
test value: inactive

compound: COCc1cnc(C2=NC(C)(C(C)C)C(=O)N2)c(C(=O)O)c1 (stereo unspecified)
readout label: AC50
test value: inactive

compound: CC(C)=CC1C(C(=O)OCc2coc(Cc3ccccc3)c2)C1(C)C (stereo unspecified)
readout label: AC50
test value: inactive

compound: O=C1C2CC=CCC2C(=O)N1SC(Cl)(Cl)Cl (stereo unspecified)
readout label: AC50
test value: inactive

Quick check: AC50 of CC(C)(C)C(=O)C(Oc1ccc(Cl)cc1)n1cncn1 (stereo unspecified) ?
50 µM (active)

====

Read-out: Tissue Factor, F3 (gene 2152)
test summary: BSK_LPS_TissueFactor: BioMAP Diversity Plus: LPS Assay for Tissue Factor Biomarker Activity (AID 2283084)
conditions: primary human HUVEC with PBMC; actives raise or lower the signal
Activity calls are given as the source filed them. Rule for the calls: active = hit-call score of the fitted dose curve at least 0.9, where 1 is the maximum; inactive = score below 0.9.
Please answer using one outcome listed in YES for active, NO for inactive

molecule: Nc1c(Cl)c(Cl)nc(C(=O)O)c1Cl
class: NO

molecule: CCCCOCN(C(=O)CCl)c1c(CC)cccc1CC
class: YES

molecule: COCC(C)N(C(=O)CCl)c1c(C)csc1C (configuration not stated)
class: NO

molecule: COP(=S)(OC)SCn1nnc2ccccc2c1=O
class: YES

Would you mind telling me which call this test gave CC(C)N1C(=O)c2ccccc2NS1(=O)=O ?
NO

// return assay outcome for Cc1c(COC(=O)[C@@H]2[C@H](/C=C(\Cl)C(F)(F)F)C2(C)C)cccc1-c1ccccc1
NO

Per the records of this test, what outcome belongs to CCN(CC)c1nc(C)cc(OP(=S)(OC)OC)n1 ?
NO

Lab log entry: COCC(=O)N(c1c(C)cccc1C)C(C)C(=O)OC (configuration not stated) — outcome as called in the assay?
NO

Please let me know the test result on file for COc1ccc(-c2ccccc2)cc1NNC(=O)OC(C)C .
NO

Query: recorded result category for CN/C(=N\[N+](=O)[O-])NCc1cnc(Cl)s1 in this test
NO

What outcome does the record of this test show for CSC(=O)c1c(C(F)F)nc(C(F)(F)F)c(C(=O)SC)c1CC(C)C ?
NO

Hey, what did the test say about CCN(CC)C(=O)C(C)Oc1cccc2ccccc12 (configuration not stated) ?
NO

====

target system: PGR (gene 5241)
test summary: NVS_NR_hPR: NovaScreen (NVS) Nuclear Receptor Binding Assay for human Progestron Receptor (PR) (AID 2283360);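 also: active means loss of bound radioligand signal versus DMSO baseline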
Records with an inconclusive call do not appear. The source made the active and inactive calls. Rule for the calls: active = hit-call score of the fitted dose curve at least 0.9, where 1 is the maximum; inconclusive = response in the unintended direction; inactive = score below 0.9.
readout label: outcome

These solved cases illustrate the format of a correct answer.
compound: CC1(C)C(C=C(Cl)Cl)C1C(=O)OC(C#N)c1cccc(Oc2ccccc2)c1 (configuration not stated)
target system: PGR (gene 5241)
outcome: inactive

compound: CC(C)=CC1C(C(=O)OCc2coc(Cc3ccccc3)c2)C1(C)C (configuration not stated)
target system: PGR (gene 5241)
outcome: inactive

compound: CCN(CC)c1nc(C)cc(OP(=S)(OC)OC)n1
target system: PGR (gene 5241)
outcome: inactive

compound: CN=C=S
target system: PGR (gene 5241)
outcome: inactive

Can you look up the measured outcome of Cc1c(COC(=O)[C@@H]2[C@H](/C=C(\Cl)C(F)(F)F)C2(C)C)cccc1-c1ccccc1 for me?
inactive

Look at this compound and give its reported outcome. CCOP(=O)(OCC)Oc1nc(Cl)c(Cl)cc1Cl
inactive

What value of outcome has been reported for the following compound? N#Cc1c(Cl)cccc1Cl
inactive

====

System: zebrafish Estrogen Receptor (ESR2B), gene 317733
test summary: ATG_zfER2b_XSP1: Attagene TRANS-FACTORIAL Multi-Species (XSP1) HepG2 Assay for zebrafish Estrogen Receptor (ESR2B) (AID 2283773)
Results filed as inconclusive are left out. Active and inactive are the calls of the source. How the source made its calls: active means hit-call score of the fitted dose curve at least 0.9, where 1 is the maximum; inconclusive means response in the unintended direction; inactive means score below 0.9.
AC50 listing for selected molecules.

These solved cases illustrate the format of a correct answer.
molecule: CC1(C)C(C=C(Cl)Cl)C1C(=O)OC(C#N)c1cccc(Oc2ccccc2)c1 (centres undefined)
target system: zebrafish Estrogen Receptor (ESR2B), gene 317733
readout label: AC50
test value: 72.5 µM (active)
--
molecule: Cc1c(COC(=O)[C@@H]2[C@H](/C=C(\Cl)C(F)(F)F)C2(C)C)cccc1-c1ccccc1
target system: zebrafish Estrogen Receptor (ESR2B), gene 317733
readout label: AC50
test value: 69.1 µM (active)
--
molecule: COP(=S)(OC)Oc1ccc([N+](=O)[O-])c(C)c1
target system: zebrafish Estrogen Receptor (ESR2B), gene 317733
readout label: AC50
test value: 74.4 µM (active)

Then this molecule:
Returns the measured AC50 for the input molecule. Input: CC(C)NC(=O)N1CC(=O)N(c2cc(Cl)cc(Cl)c2)C1=O
100 µM (active)

====

test summary: CCTE_Mundy_HCI_Cortical_Synap_Neur_Matur_NeuriteCount: CCTE's Synaptogenesis and Neurite Maturation Assay in rat cortical cells for Neurite Count, Mundy Lab (AID 2284222)
The source made the active and inactive calls. The calls were made as follows: active = hit-call score of the fitted dose curve at least 0.9, where 1 is the maximum; inactive = score below 0.9.
# valid calls are 1 (yes) for active, 0 (no) for inactive; nothing else

Past entries and their recorded results:
compound: Cc1c(COC(=O)[C@@H]2[C@H](/C=C(\Cl)C(F)(F)F)C2(C)C)cccc1-c1ccccc1
class: 1 (yes)
//
compound: N#CN=C1SCCN1Cc1ccc(Cl)nc1
class: 0 (no)

Which outcome was entered for the compound COP(=O)(OC)O/C(C)=C/C(=O)N(C)C in this test?
0 (no)

Dear colleague, could you share the recorded outcome for CCN(CC)c1nc(C)cc(OP(=S)(OC)OC)n1 when you have a moment?
0 (no)

# lookup: test call for CCSC(=O)N1CCCCCC1
0 (no)

What was the test verdict on CC(C)(C)C(=O)C(Oc1ccc(Cl)cc1)n1cncn1 (configuration not stated) ?
1 (yes)

How was CO/N=C(/C1=NOCCO1)c1ccccc1Oc1ncnc(Oc2ccccc2Cl)c1F classified in this test?
1 (yes)

I'd appreciate the recorded outcome for COC(=O)N(C(=O)N1CO[C@@]2(C(=O)OC)Cc3cc(Cl)ccc3C2=N1)c1ccc(OC(F)(F)F)cc1 from this test.
0 (no)

Hello, I am checking results. What call was entered for CN/C(=N\[N+](=O)[O-])NCc1cnc(Cl)s1 ?
0 (no)

Test call, this compound: CCNC(=O)NC(=O)C(C#N)=NOC
0 (no)

Please let me know the test result on file for O=C(Nc1ccccc1-c1ccc(Cl)cc1)c1cccnc1Cl .
0 (no)

# fetch the recorded call for CC1(C)C(C=C(Cl)Cl)C1C(=O)OC(C#N)c1cccc(Oc2ccccc2)c1 (configuration not stated) here
0 (no)
